Test system: SR
Experimental details: NCI tumour cell line growth inhibition, 48 h
The source made the active and inactive calls. Rule as the data show it: active = GI50 up to about 1.1 µM and inactive = higher.

| Compound | GI50 |
| --- | --- |
| NC1=NC(=O)[C@H](CSCc2ccccc2)N1C(=O)OCc1ccccc1 | > 100 µM (inactive) |
| N=C(N)c1ccc(/N=N\c2c(O)ccc3cc4c(/N=N\c5ccc(C(=N)N)cc5)c(O)ccc4cc23)cc1 | 26.6 µM (inactive) |
| COC(=O)C(/C(=N/N)C(=O)Nc1cc(Cl)c(Cl)cc1Cl)c1nc2ccc(Cl)cc2nc1O (stereo unspecified) | 87.1 µM (inactive) |
| CCCCCCCCCCCC(=O)c1c(O)cc(C)oc1=O | > 10 µM (inactive) |
| Nc1ccccc1Sc1ccc(Cl)cc1 | 21.2 µM (inactive) |
| COC(=O)C12OCC34C(CC5C(C)C6=CC(=O)OC6=CC5(C)C3C(O)C1O)OC(=O)C(OC(C)=O)C24 (stereo unspecified) | 18.3 µM (inactive) |
| CC1C[C@]2(C)C(=O)N(c3ccccc3)C(=N)[C@@H]2N(C)c2ccccc21 (stereo partly specified) | > 100 µM (inactive) |
| O=C(O/N=C1/CCC/C1=C\c1ccccc1)c1ccc([N+](=O)[O-])cc1 | > 100 µM (inactive) |
| CC(C)(C)OC(=O)N1C(OP(=O)(Oc2ccccc2)Oc2ccccc2)=CSc2ccccc21 | 31.8 µM (inactive) |
| N#CC1=C(O)NC(O)=C(C#N)C1c1c(Cl)cccc1Cl | > 100 µM (inactive) |
| COc1ccc(/C=N/n2c(-c3ccccc3)n[nH]c2=O)c(OC)c1 | > 100 µM (inactive) |
| Cc1ccc(N2C(=O)C(Cl)=C(Cl)C2=O)cc1 | 21.3 µM (inactive) |
| Nc1ccccc1S(=O)(=O)c1ccccc1 | > 100 µM (inactive) |
| COc1cc2c(=O)cnoc2cc1O | > 100 µM (inactive) |
| CC(=O)Oc1ccc2c(c1)oc1c3ccc(OC(C)=O)cc3n(C)c(=O)c21 | 33.5 µM (inactive) |
| C=CCOCCC(CC=C)C(=O)CC(=O)OC (stereo unspecified) | 3.56 µM (inactive) |
| O=C1C=C(Sc2ccccc2)c2nccc3c2c1nc1ccccc13 | 5.92 µM (inactive) |
| O=C1C=C(Nc2ccc(S(=O)(=O)Nc3nccs3)cc2)c2ccccc2C1=O | 39.5 µM (inactive) |
| CC(C)CC(N)C(=O)NC(CNC(CCC(N)=O)C(=O)NC(CC(C)C)C(=O)NC(CC(C)C)C(=O)O)Cc1ccc2ccccc2c1 (stereo unspecified) | > 10 µM (inactive) |
| Cc1c(NC(=S)NC(=O)c2ccc([N+](=O)[O-])cc2)c(=O)n(-c2ccccc2)n1C | > 100 µM (inactive) |
| CCN(CC(COc1ccc2c(c1)[n+]([O-])nc(N)[n+]2[O-])OC(C)=O)C(C)=O (stereo unspecified) | > 100 µM (inactive) |
